Hey, just so you know, these numbers are from patent US20220033501A1.

IFN-γ production (donor X); antibody 0.1 µg/ml, N = 1 values, listed per item
# system.tested: T1, TIM-3 protein on human peripheral blood mononuclear lymphocytes (PBMC) (human, UniProt Q8TDQ0 22-301)
# T1 sequence: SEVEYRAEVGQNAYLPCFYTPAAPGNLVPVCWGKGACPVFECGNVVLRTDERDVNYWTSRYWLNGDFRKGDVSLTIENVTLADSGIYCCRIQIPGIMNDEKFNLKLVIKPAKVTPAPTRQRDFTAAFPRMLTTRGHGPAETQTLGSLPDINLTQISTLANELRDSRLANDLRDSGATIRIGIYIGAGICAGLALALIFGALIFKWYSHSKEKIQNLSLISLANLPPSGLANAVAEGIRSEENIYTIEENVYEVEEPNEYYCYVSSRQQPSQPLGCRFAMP
# protocol.notes: cell-based or functional assay
Value expressed in pg/mL; do not type the unit.

Some entries whose results are on file:
1. 18D2H2 fully human TIM-3 antibody (human IgG4, kappa) (antibody, V domains shown) VH: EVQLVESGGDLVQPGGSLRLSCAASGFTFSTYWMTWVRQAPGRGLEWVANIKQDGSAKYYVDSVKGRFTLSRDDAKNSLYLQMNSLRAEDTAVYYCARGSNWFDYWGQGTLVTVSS VL: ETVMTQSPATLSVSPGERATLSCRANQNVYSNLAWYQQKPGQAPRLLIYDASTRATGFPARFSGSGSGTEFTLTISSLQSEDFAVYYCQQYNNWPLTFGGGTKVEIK = 2660
2. 134H3G6 fully human TIM-3 antibody (human IgG4, kappa) (antibody, V domains shown) VH: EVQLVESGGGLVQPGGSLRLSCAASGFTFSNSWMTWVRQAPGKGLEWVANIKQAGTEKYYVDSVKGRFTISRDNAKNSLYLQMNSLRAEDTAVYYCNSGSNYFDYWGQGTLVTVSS VL: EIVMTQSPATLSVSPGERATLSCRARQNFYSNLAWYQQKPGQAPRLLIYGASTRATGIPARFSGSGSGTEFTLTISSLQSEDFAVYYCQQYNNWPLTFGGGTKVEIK = 2610

Fill in IFN-γ production (donor X); antibody 0.1 µg/ml, N = 1 for record 39E5H1 fully human TIM-3 antibody (human IgG4, kappa) (antibody, V domains shown) VH: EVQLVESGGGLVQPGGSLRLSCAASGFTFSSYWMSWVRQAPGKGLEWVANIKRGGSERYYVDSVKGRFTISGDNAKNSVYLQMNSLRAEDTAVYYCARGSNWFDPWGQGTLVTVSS VL: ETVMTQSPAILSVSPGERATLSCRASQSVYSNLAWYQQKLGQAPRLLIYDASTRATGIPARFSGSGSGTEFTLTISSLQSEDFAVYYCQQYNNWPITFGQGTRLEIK
2700
